Measured values drawn from ChEMBL document CHEMBL1255400 for this set.

Experiment: Cmax in normally fed BALB/c mouse at 10 mg/kg, iv
Assay type: ADME, organism-based
Design: dose 10 mg/kg, route intravenous
Conditions: in vivo

SMILES | Cmax
NC[C@H]1O[C@H](O[C@H]2[C@H](O)[C@@H](O[C@H]3O[C@H](CO)[C@@H](O)[C@H](N)[C@H]3O)[C@H](N)C[C@@H]2N)[C@H](N)C[C@@H]1O | 35300 ng/mL
